# Target system: Polyadenylate-binding protein 1 (Homo sapiens)
# Sequence (P11940 whole entry, the tested form may be a part): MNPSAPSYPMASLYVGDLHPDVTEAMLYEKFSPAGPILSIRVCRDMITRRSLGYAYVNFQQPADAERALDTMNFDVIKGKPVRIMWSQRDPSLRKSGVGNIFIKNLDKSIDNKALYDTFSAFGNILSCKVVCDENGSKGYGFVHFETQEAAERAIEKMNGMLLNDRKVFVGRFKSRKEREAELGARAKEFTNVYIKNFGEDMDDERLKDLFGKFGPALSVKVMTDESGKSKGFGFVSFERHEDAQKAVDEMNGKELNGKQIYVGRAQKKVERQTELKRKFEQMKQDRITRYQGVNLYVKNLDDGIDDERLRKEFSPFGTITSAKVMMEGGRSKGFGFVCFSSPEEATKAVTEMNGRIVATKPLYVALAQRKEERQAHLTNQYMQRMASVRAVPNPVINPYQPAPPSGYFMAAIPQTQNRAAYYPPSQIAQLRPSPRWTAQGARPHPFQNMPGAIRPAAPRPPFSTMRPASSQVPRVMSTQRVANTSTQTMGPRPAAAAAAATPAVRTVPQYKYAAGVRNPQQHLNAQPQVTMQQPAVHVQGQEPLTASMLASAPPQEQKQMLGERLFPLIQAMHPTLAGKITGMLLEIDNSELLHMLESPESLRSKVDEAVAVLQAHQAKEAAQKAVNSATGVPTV
# Experiment summary: MLLE domain peptide-binding blockers, IC50 – biochemical, fluorescence polarization, FITC-PAM2 peptide, dose response (AID 602259)
# Assay type: functional
# Condition label: read-out: IC50_Mean
Calls of active or inactive are those of the source.
Recorded metric: IC50

CC(C)c1nnc(NC(=O)CS(=O)(=O)Cc2ccccc2)s1    > 66 µM (inactive)
COC(=O)c1c(NC(=O)C2C3CCC(C3)C2C(=O)O)sc2c1CCCCC2 (stereo unspecified)    > 66 µM (inactive)
CCCC(=O)NC(=S)Nc1cccc(Cl)c1N1CCCC1    > 66 µM (inactive)
CCOC(=O)c1cc2c(ccn2C)n1CC(=O)N(Cc1ccccc1)c1ccccc1    > 66 µM (inactive)
O=C(O)C1CCCN1c1nc(Cl)ccc1[N+](=O)[O-] (stereo unspecified)    > 66 µM (inactive)

Lab note: each molecule below needs its IC50 filled in.
1. Cc1cc(NC(=O)CSC2=NCCS2)no1
2. CN(C)CCN1C(=O)c2cccc3cc([N+](=O)[O-])cc(c23)C1=O [MITONAFIDE]
3. COc1cccc(NC(=S)Nc2cc(C)cc(C)n2)c1
4. CCCCN=C(S)Nc1ccc(OC)nc1
5. CCc1c(O)n(-c2ccccc2C)c(SCC(=O)Nc2ccccc2OC)nc1=O
6. COc1ccc(NS(=O)(=O)c2ccc(NC(=S)NC(=O)c3cccc(F)c3)cc2)nn1

["> 66 µM (inactive)", "43.4 µM (inactive)", "> 66 µM (inactive)", "43.7 µM (inactive)", "> 66 µM (inactive)", "> 66 µM (inactive)"]

###

Would you mind telling me the reported EC50 of each entry?
# Experiment summary: Luminescence Cell-Based Dose Response HTS to Identify Inhibitors of 5'UTR Stem-Loop Driven Prion Protein mRNA Translation in H4 Neuroglioblastoma Cells. [Related pubchem assays: 1827 (Project Summary), 1813 (Primary HTS)]
# Type: functional
Activity calls are given as the source filed them.

Count: 4. Required value per item: EC50.
1. O=C(N/N=C/c1ccc[nH]1)c1ccc(COc2cccc3cccnc23)cc1
2. O=C(CCCN1C(=O)/C(=C/c2ccc3c(c2)OCO3)SC1=S)Nc1cccc(C(=O)O)c1
3. CCOc1ccc(C(=O)Nc2ccc3nc(N4CCN(CC)CC4)cc(C)c3c2)cc1
4. Cc1ccc(NS(=O)(=O)c2ccc(-c3cnc(C4CC4)o3)cc2)c(C)c1

1. > 120 µM (not active)
2. 17.5 µM (active)
3. > 120 µM (not active)
4. 3.3 µM (active)

###

# Target system: UniProt P9WMR3
# Experiment summary: DnaB intein splicing inhibitors, dose response, biochemical, cell-free fluorescence (AID 449749)
# Format: functional
Active and inactive are the calls of the source.
Valid outcomes are listed here; reply with one: active, inactive

N#CCCn1[nH]c(-c2ccccc2)cc1=O    active
Cc1n[nH]c2c1C(c1cccc(OC(=O)N3CCOCC3)c1)C(C#N)=C(N)O2 (stereo not drawn)    active
CCOC(=O)CN1C(=O)N[C@@H](c2cccc(C(F)(F)F)c2)C(C(C)=O)=C1C    inactive
O=C(CCl)Nc1ccc(N=Nc2ccccc2)cc1    active

Could you now look at the following compound, please?
Identify the outcome logged in this assay for the compound shown: `COc1ccc(OC)c(N2C(=O)C(Cl)=C(N3CCCCC3)C2=O)c1`
active
